Biological target: T1, recombinant human IL-31 (hIL-31, BHK produced, A1277F, zcytor17lig CEE) (human, UniProt Q6EBC2 24-164)
T1 construct: also called recombinant hIL-31
T1 sequence: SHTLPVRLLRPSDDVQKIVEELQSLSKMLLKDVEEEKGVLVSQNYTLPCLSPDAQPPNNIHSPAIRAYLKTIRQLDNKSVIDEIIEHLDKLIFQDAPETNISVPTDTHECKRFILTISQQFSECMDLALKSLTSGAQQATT
Experiment: SPR (Biacore), against parent 292.12.3.1
Description: The purified monoclonal antibodies were immobilized in individual flow cells on a CM5 type sensor chip. Immobilizations were performed using a standard amine coupling procedure, aiming for an immobilization level of 500 Resonance Units (RU). The antibodies were diluted to 1-5 ug/ml in 10 mM NaAc pH 4.5. […] The kinetic parameters were calculated by global fitting of the data using a 1:1 langmuir binding model. […]
Entries annotated with measured Relative potency loss (KD)
Quantity name: Relative potency loss (KD)

>  <Binder>
humanized 292.12.3.1 construct clone 30 (12VH1-gly + HC(F29L, V78A, R94F) + LC(F71Y)) (antibody, human IgG4, V domains shown) VH: QVQLVQSGAEVKKPGASVKVSCKASGYTLTRYWMQWVRQAPGQGLEWMGAIYPGDGDTRYSQKFQGRVTMTRDTSISTAYMELSSLRSEDTAVYYCAFPDGYYAAPYGMDYWGQGTLVTVSS VL: DIQMTQSPSSLSASVGDRVTITCRASGNIHNYLAWYQQKPGKVPKLLIYNAKTLADGVPSRFSGSGSGTDYTLTISSLQPEDVATYYCQHFWSTPWTFGQGTKVEIKR

>  <Observed>
~0.5 x to parent

$$$$
>  <Binder>
humanized 292.12.3.1 construct clone 31 (12VH1-gly + HC(F29L, M69L, R71A, V78A, R94F) + LC(F71Y)) (antibody, human IgG4, V domains shown) VH: QVQLVQSGAEVKKPGASVKVSCKASGYTLTRYWMQWVRQAPGQGLEWMGAIYPGDGDTRYSQKFQGRVTLTADTSISTAYMELSSLRSEDTAVYYCAFPDGYYAAPYGMDYWGQGTLVTVSS VL: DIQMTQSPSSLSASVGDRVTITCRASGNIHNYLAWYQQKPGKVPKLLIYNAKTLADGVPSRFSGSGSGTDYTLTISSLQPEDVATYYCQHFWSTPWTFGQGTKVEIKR

>  <Observed>
~0.4 x to parent

$$$$
>  <Binder>
humanized 292.12.3.1 construct clone 13 (12VH1-gly + HC(F29L, M69L, R71A, T73K, V78A) + LC(fback)) (antibody, human IgG4, V domains shown) VH: QVQLVQSGAEVKKPGASVKVSCKASGYTLTRYWMQWVRQAPGQGLEWMGAIYPGDGDTRYSQKFQGRVTLTADKSISTAYMELSSLRSEDTAVYYCARPDGYYAAPYGMDYWGQGTLVTVSS VL: DIQMTQSPSSLSASVGDRVTITCRASGNIHNYLAWYQQKPGKVPKLLIYNAKTLADGVPSRFSGSRSETQYSLTISSLQPEDVATYYCQHFWSTPWTFGQGTKVEIKR

>  <Observed>
~10 x to parent

$$$$
>  <Binder>
humanized 292.12.3.1 construct clone 17 (12VH1-gly + HC(fback) + LC(D70Q, F71Y, T72S)) (antibody, human IgG4, V domains shown) VH: QVQLVQSGAEVKKPGASVKVSCKASGYTLTRYWMQWVRQAPGQGLEWMGAIYPGDGDTRYSQKFQGRVTLTADKSISTAYMELSSLRSEDTAVYYCAFPDGYYAAPYGMDYWGQGTLVTVSS VL: DIQMTQSPSSLSASVGDRVTITCRASGNIHNYLAWYQQKPGKVPKLLIYNAKTLADGVPSRFSGSGSGTQYSLTISSLQPEDVATYYCQHFWSTPWTFGQGTKVEIKR

>  <Observed>
~0.4 x to parent

$$$$
>  <Binder>
humanized 292.12.3.1 construct clone 28 (12VH1-gly + HC(F29L, R71A, R94F) + LC(F71Y)) (antibody, human IgG4, V domains shown) VH: QVQLVQSGAEVKKPGASVKVSCKASGYTLTRYWMQWVRQAPGQGLEWMGAIYPGDGDTRYSQKFQGRVTMTADTSISTVYMELSSLRSEDTAVYYCAFPDGYYAAPYGMDYWGQGTLVTVSS VL: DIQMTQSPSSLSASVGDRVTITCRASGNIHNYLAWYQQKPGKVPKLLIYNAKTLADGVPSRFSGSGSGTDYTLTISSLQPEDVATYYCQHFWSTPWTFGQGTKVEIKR

>  <Observed>
~0.25 x to parent

$$$$
